Molecular target: Orexin receptor type 2 (Homo sapiens, UniProt O43614)
Sequence (O43614 whole entry): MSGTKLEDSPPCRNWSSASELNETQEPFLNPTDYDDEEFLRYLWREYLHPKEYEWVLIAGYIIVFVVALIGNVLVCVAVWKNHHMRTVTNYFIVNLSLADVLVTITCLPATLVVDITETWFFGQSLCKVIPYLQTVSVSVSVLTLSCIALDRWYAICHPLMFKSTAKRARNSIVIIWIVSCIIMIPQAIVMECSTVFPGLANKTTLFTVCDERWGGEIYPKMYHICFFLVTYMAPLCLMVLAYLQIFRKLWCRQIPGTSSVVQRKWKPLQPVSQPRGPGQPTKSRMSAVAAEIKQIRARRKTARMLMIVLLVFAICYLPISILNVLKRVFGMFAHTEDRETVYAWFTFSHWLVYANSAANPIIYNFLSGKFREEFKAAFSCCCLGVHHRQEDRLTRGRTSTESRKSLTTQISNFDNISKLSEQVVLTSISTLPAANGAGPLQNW
Test: Displacement of [125I]-orexin A from human OX2 receptor expressed in […] after 90 mins by scintillation counting
pIC50: −log10 of the molar value.
assay endpoint: pIC50

# example entries with known answers
[
  {
    "compound": "CCOC(=O)c1c(NC(=O)C(C)Sc2nnc(CNC(=O)c3cc(OC)cc(OC)c3)n2-c2ccccc2OC)sc2c1CCC2 (centres undefined)",
    "subject of test": "Orexin receptor type 2 (Homo sapiens, UniProt O43614)",
    "pIC50": 6.15
  },
  {
    "compound": "C=CCN1C(=O)C2(Nc3ccccc3C(=O)N2c2ccccc2OC)c2ccccc21 (centres undefined)",
    "subject of test": "Orexin receptor type 2 (Homo sapiens, UniProt O43614)",
    "pIC50": 6.15
  },
  {
    "compound": "COC(=O)CN(C(C)=O)C(c1ccccc1)c1cc(Br)ccc1NC(=O)c1ccccc1Cl (centres undefined)",
    "subject of test": "Orexin receptor type 2 (Homo sapiens, UniProt O43614)",
    "pIC50": 5.77
  }
]

P: COc1ccc(CCNC(=O)Cn2c(-c3nonc3N)nc3ccccc32)cc1OC
Q: COc1ccc(N(CC(=O)NC(C)c2ccccc2)S(=O)(=O)c2ccc(OC)c(OC)c2)cc1 (centres undefined)
R: COc1ccccc1OCCNC[C@@H](O)COc1cccc2[nH]c3ccccc3c12 [(R)-Carvedilol]
S: O=C(CSc1nnc(-c2cccs2)n1Cc1ccco1)Nc1ccc2c(c1)OCCO2
T: CC(/C=C/c1ccccc1)=N/Nc1nc(Nc2ccccc2)nc(-n2nc(C)cc2C)n1
Incoming: Arrange these compounds by their pIC50, starting with the largest number. A ranking is expressed here by listing the labels in the requested order.
Outgoing: Q, S, P, R, T
(Q: 7.15, S: 6.89, P: 6.30, R: 6.05, T: 4.93)
